This section presents molecules with their documented viability, T/C values.
System: DU-145 multicell spheroids with HUVEC/MSC, viability
Test: Anticancer human tumor DU-145 cell line growth inhibition [IpAb];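 note: spheroids exposed to agents for seven days before measurement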;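 for viability, T/C: percent of DMSO vehicle control viability so 100% = untreated level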
Conditions: second compound 1 µM; first compound 0.00949 µM; stronger effect = lower value
Description: Combinatorial screen of targeted agents with ipatasertib and abemaciclib in multi-cell type tumor spheroids […] Compounds. […] If the clinical Cmax for an agent had not been determined, the highest concentration tested was 10 microM. NCI60 Cell Culture. […] The optimal seeding densities for each of the cell lines at each time point assessed were determined prior to performing the concentration response studies. […]
value_kind: viability, T/C (%)

molecule: CC(C)(C)c1cnc(CSc2cnc(NC(=O)C3CCNCC3)s2)o1 + CC(C)NCC(C(=O)N1CCN(c2ncnc3c2C(C)CC3O)CC1)c1ccc(Cl)cc1
unit_string: %
reported_result: 33.1
//
molecule: CC(C)(C)c1cnc(CSc2cnc(NC(=O)C3CCNCC3)s2)o1 + CCN1CCN(Cc2ccc(Nc3ncc(F)c(-c4cc(F)c5nc(C)n(C(C)C)c5c4)n3)nc2)CC1
unit_string: %
reported_result: 67.8
//
molecule: CC(=O)c1c(C)c2cnc(Nc3ccc(N4CCNCC4)cn3)nc2n(C2CCCC2)c1=O + CC(C)NCC(C(=O)N1CCN(c2ncnc3c2C(C)CC3O)CC1)c1ccc(Cl)cc1
unit_string: %
reported_result: 28.9
//
molecule: Cn1cnc2c(F)c(Nc3ccc(Br)cc3Cl)c(C(=O)NOCCO)cc21 + CC(C)NCC(C(=O)N1CCN(c2ncnc3c2C(C)CC3O)CC1)c1ccc(Cl)cc1
unit_string: %
reported_result: 31.4
//
molecule: Cn1cnc2c(F)c(Nc3ccc(Br)cc3Cl)c(C(=O)NOCCO)cc21 + CCN1CCN(Cc2ccc(Nc3ncc(F)c(-c4cc(F)c5nc(C)n(C(C)C)c5c4)n3)nc2)CC1
unit_string: %
reported_result: 58.1
//
molecule: CC(=O)c1c(C)c2cnc(Nc3ccc(N4CCNCC4)cn3)nc2n(C2CCCC2)c1=O + CCN1CCN(Cc2ccc(Nc3ncc(F)c(-c4cc(F)c5nc(C)n(C(C)C)c5c4)n3)nc2)CC1
unit_string: %
reported_result: 61.6

###

This section presents molecules with their documented viability, T/C values.
system: DU-145 multicell spheroids with HUVEC/MSC, viability; experiment: Anticancer human tumor DU-145 cell line growth inhibition [IpAb]; conditions: second compound 1 µM; first compound 0.3 µM; stronger effect = lower value;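 note: spheroids exposed to agents for seven days before measurement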;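 for viability, T/C: percent of DMSO vehicle control viability so 100% = untreated level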
value_kind: viability, T/C

molecule: Cn1cnc2c(F)c(Nc3ccc(Br)cc3Cl)c(C(=O)NOCCO)cc21 + CC(C)NCC(C(=O)N1CCN(c2ncnc3c2C(C)CC3O)CC1)c1ccc(Cl)cc1
reported_result: 23%
//
molecule: CC(=O)c1c(C)c2cnc(Nc3ccc(N4CCNCC4)cn3)nc2n(C2CCCC2)c1=O + CC(C)NCC(C(=O)N1CCN(c2ncnc3c2C(C)CC3O)CC1)c1ccc(Cl)cc1
reported_result: 27.8%
//
molecule: CC(C)(C)c1cnc(CSc2cnc(NC(=O)C3CCNCC3)s2)o1 + CCN1CCN(Cc2ccc(Nc3ncc(F)c(-c4cc(F)c5nc(C)n(C(C)C)c5c4)n3)nc2)CC1
reported_result: 6.89%

###

test system: DU-145 multicell spheroids with HUVEC/MSC, viability; assay: Anticancer human tumor DU-145 cell line growth inhibition [IpAb]; details: second compound 0.1 µM; first compound 3 µM; stronger effect = lower value;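 note: spheroids exposed to agents for seven days before measurement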;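 for viability, T/C: percent of DMSO vehicle control viability so 100% = untreated level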
This section presents compounds with their documented viability, T/C values.
value_kind: viability, T/C (%)

compound: CC(C)(C)c1cnc(CSc2cnc(NC(=O)C3CCNCC3)s2)o1 + CC(C)NCC(C(=O)N1CCN(c2ncnc3c2C(C)CC3O)CC1)c1ccc(Cl)cc1
unit_string: %
reported_result: 5.76
//
compound: Cn1cnc2c(F)c(Nc3ccc(Br)cc3Cl)c(C(=O)NOCCO)cc21 + CCN1CCN(Cc2ccc(Nc3ncc(F)c(-c4cc(F)c5nc(C)n(C(C)C)c5c4)n3)nc2)CC1
unit_string: %
reported_result: 37.1
//
compound: CC(C)(C)c1cnc(CSc2cnc(NC(=O)C3CCNCC3)s2)o1 + CCN1CCN(Cc2ccc(Nc3ncc(F)c(-c4cc(F)c5nc(C)n(C(C)C)c5c4)n3)nc2)CC1
unit_string: %
reported_result: 4.44
//
compound: Cn1cnc2c(F)c(Nc3ccc(Br)cc3Cl)c(C(=O)NOCCO)cc21 + CC(C)NCC(C(=O)N1CCN(c2ncnc3c2C(C)CC3O)CC1)c1ccc(Cl)cc1
unit_string: %
reported_result: 34.9

###

tested on: DU-145 multicell spheroids with HUVEC/MSC, viability; assay: Anticancer human tumor DU-145 cell line growth inhibition [IpAb]; details: second compound 0.1 µM; first compound 0.949 µM; active means viability on the fitted dose curve at most 10% of control; inactive means the rest;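 note: spheroids exposed to agents for seven days before measurement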
Possible outcomes: t (active), f (inactive)

compound: CC(C)(C)c1cnc(CSc2cnc(NC(=O)C3CCNCC3)s2)o1 + CC(C)NCC(C(=O)N1CCN(c2ncnc3c2C(C)CC3O)CC1)c1ccc(Cl)cc1
class: t
--
compound: Cn1cnc2c(F)c(Nc3ccc(Br)cc3Cl)c(C(=O)NOCCO)cc21 + CCN1CCN(Cc2ccc(Nc3ncc(F)c(-c4cc(F)c5nc(C)n(C(C)C)c5c4)n3)nc2)CC1
class: f
--
compound: CC(C)(C)c1cnc(CSc2cnc(NC(=O)C3CCNCC3)s2)o1 + CCN1CCN(Cc2ccc(Nc3ncc(F)c(-c4cc(F)c5nc(C)n(C(C)C)c5c4)n3)nc2)CC1
class: t
--
compound: Cn1cnc2c(F)c(Nc3ccc(Br)cc3Cl)c(C(=O)NOCCO)cc21 + CC(C)NCC(C(=O)N1CCN(c2ncnc3c2C(C)CC3O)CC1)c1ccc(Cl)cc1
class: f

###

system: DU-145 multicell spheroids with HUVEC/MSC, viability; assay: Anticancer human tumor DU-145 cell line growth inhibition [IpAb]; details: curve of first compound; second compound 0.316 µM;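 note: spheroids exposed to agents for seven days before measurement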
We label by threshold. Values of IC50 strictly beneath 60 nM are Satisfied. Values of 60 nM and up are Not satisfied.

compound: C=CC(=O)N1CCN(c2nc(=O)n(-c3c(C)ccnc3C(C)C)c3nc(-c4c(O)cccc4F)c(F)cc23)C(C)C1 (stereo unspecified) + CCN1CCN(Cc2ccc(Nc3ncc(F)c(-c4cc(F)c5nc(C)n(C(C)C)c5c4)n3)nc2)CC1
class: Not satisfied
--
compound: Cn1cnc2c(F)c(Nc3ccc(Br)cc3Cl)c(C(=O)NOCCO)cc21 + CC(C)NCC(C(=O)N1CCN(c2ncnc3c2C(C)CC3O)CC1)c1ccc(Cl)cc1
class: Satisfied
--
compound: COc1c(OCCCN2CCOCC2)ccc2c3n(c(=NC(=O)c4cnc(N)nc4)nc12)CCN3 + CCN1CCN(Cc2ccc(Nc3ncc(F)c(-c4cc(F)c5nc(C)n(C(C)C)c5c4)n3)nc2)CC1
class: Satisfied
--
compound: C=CCn1c(=O)c2cnc(Nc3ccc(N4CCN(C)CC4)cc3)nc2n1-c1cccc(C(C)(C)O)n1 + CCN1CCN(Cc2ccc(Nc3ncc(F)c(-c4cc(F)c5nc(C)n(C(C)C)c5c4)n3)nc2)CC1
class: Satisfied
--
compound: CCCS(=O)(=O)Nc1ccc(F)c(C(=O)c2c[nH]c3ncc(-c4ccc(Cl)cc4)cc23)c1F + CC(C)NCC(C(=O)N1CCN(c2ncnc3c2C(C)CC3O)CC1)c1ccc(Cl)cc1
class: Not satisfied
--
compound: Cn1ncc(Cl)c1-c1cc(C(=O)NC(CN)Cc2cccc(F)c2)sc1Cl (stereo unspecified) + CC(C)NCC(C(=O)N1CCN(c2ncnc3c2C(C)CC3O)CC1)c1ccc(Cl)cc1
class: Satisfied
--
compound: Cn1ncnc1[C@H]1c2n[nH]c(=O)c3cc(F)cc(c23)N[C@@H]1c1ccc(F)cc1 + CC(C)NCC(C(=O)N1CCN(c2ncnc3c2C(C)CC3O)CC1)c1ccc(Cl)cc1
class: Satisfied
--
compound: COc1c(OCCCN2CCOCC2)ccc2c3n(c(=NC(=O)c4cnc(N)nc4)nc12)CCN3 + CC(C)NCC(C(=O)N1CCN(c2ncnc3c2C(C)CC3O)CC1)c1ccc(Cl)cc1
class: Satisfied
--
compound: CC(C)n1nc(-c2ccc3oc(N)nc3c2)c2c(N)ncnc21 + CCN1CCN(Cc2ccc(Nc3ncc(F)c(-c4cc(F)c5nc(C)n(C(C)C)c5c4)n3)nc2)CC1
class: Satisfied
--
compound: CCCS(=O)(=O)Nc1ccc(F)c(C(=O)c2c[nH]c3ncc(-c4ccc(Cl)cc4)cc23)c1F + CCN1CCN(Cc2ccc(Nc3ncc(F)c(-c4cc(F)c5nc(C)n(C(C)C)c5c4)n3)nc2)CC1
class: Not satisfied

###

test system: DU-145 multicell spheroids with HUVEC/MSC, viability; assay: Anticancer human tumor DU-145 cell line growth inhibition [IpAb]; details: second compound 10 µM; first compound 0.316 µM; stronger effect = lower value;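 note: spheroids exposed to agents for seven days before measurement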;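 for viability, T/C: percent of DMSO vehicle control viability so 100% = untreated level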
We label by threshold. Values of viability, T/C strictly beneath 10% are yes. Values of 10% and up are no.

compound: COc1c(OCCCN2CCOCC2)ccc2c3n(c(=NC(=O)c4cnc(N)nc4)nc12)CCN3 + CC(C)NCC(C(=O)N1CCN(c2ncnc3c2C(C)CC3O)CC1)c1ccc(Cl)cc1
class: yes
--
compound: C=CC(=O)N1CCN(c2nc(=O)n(-c3c(C)ccnc3C(C)C)c3nc(-c4c(O)cccc4F)c(F)cc23)C(C)C1 (stereo not drawn) + CC(C)NCC(C(=O)N1CCN(c2ncnc3c2C(C)CC3O)CC1)c1ccc(Cl)cc1
class: no
--
compound: CCCS(=O)(=O)Nc1ccc(F)c(C(=O)c2c[nH]c3ncc(-c4ccc(Cl)cc4)cc23)c1F + CC(C)NCC(C(=O)N1CCN(c2ncnc3c2C(C)CC3O)CC1)c1ccc(Cl)cc1
class: no
--
compound: Cc1nc(NC(=O)N2CCCC2C(N)=O)sc1-c1ccnc(C(C)(C)C(F)(F)F)c1 (stereo not drawn) + CC(C)NCC(C(=O)N1CCN(c2ncnc3c2C(C)CC3O)CC1)c1ccc(Cl)cc1
class: no
--
compound: CC1(C)CCC(CN2CCN(c3ccc(C(=O)NS(=O)(=O)c4ccc(NCC5CCOCC5)c([N+](=O)[O-])c4)c(Oc4cnc5[nH]ccc5c4)c3)CC2)=C(c2ccc(Cl)cc2)C1 + CC(C)NCC(C(=O)N1CCN(c2ncnc3c2C(C)CC3O)CC1)c1ccc(Cl)cc1
class: no
--
compound: Cn1nccc1Nc1nccc(-c2ccn(C(CO)c3ccc(Cl)c(F)c3)c(=O)c2)n1 (stereo not drawn) + CC(C)NCC(C(=O)N1CCN(c2ncnc3c2C(C)CC3O)CC1)c1ccc(Cl)cc1
class: no
--
compound: C=CCn1c(=O)c2cnc(Nc3ccc(N4CCN(C)CC4)cc3)nc2n1-c1cccc(C(C)(C)O)n1 + CC(C)NCC(C(=O)N1CCN(c2ncnc3c2C(C)CC3O)CC1)c1ccc(Cl)cc1
class: yes
--
compound: Cn1ncc(Cl)c1-c1cc(C(=O)NC(CN)Cc2cccc(F)c2)sc1Cl (stereo not drawn) + CC(C)NCC(C(=O)N1CCN(c2ncnc3c2C(C)CC3O)CC1)c1ccc(Cl)cc1
class: no

Data origin, for the record: PubChem BioAssay AID2060335
